Hey, just so you know, these numbers are from ChEMBL document CHEMBL3745650.

- assay: Antiinflammatory activity in PMA-differentiated human U937 cells assessed as inhibition of LPS-stimulated IL-1beta secretion at 500 uM preincubated for 2 hrs followed by LPS-stimulation measured after 24 hrs by ELISA relative to control
- Assay type: functional
- study-conditions: U-937
Below, each entry is listed alongside its reported inhibition at 500 µM.
Numeric only. Scale: %

Observe how each entry below is paired with its result.
molecule	inhibition at 500 µM / %
CCOC(=O)Cc1ccc(O)c(OC)c1	0
COc1cc(CC(=O)O)ccc1O [HOMOVANILLIC ACID]	3.6

Shifting focus to the molecule that follows.
(Q) Provide measured inhibition at 500 µM value, entry: COc1cc(C(O)C(=O)O)ccc1O (stereo not drawn)
(A) 7.2
